- study.target: KRAS G12D/RAF1 (Homo sapiens, UniProt P01116, G12D)
- Construct: KRAS (1-169) proteins were expressed in E. coli at 18° C; His6-MBP (N, cleaved yes)
- Sequence (P01116 1-169 isoform P01116-2 G12D): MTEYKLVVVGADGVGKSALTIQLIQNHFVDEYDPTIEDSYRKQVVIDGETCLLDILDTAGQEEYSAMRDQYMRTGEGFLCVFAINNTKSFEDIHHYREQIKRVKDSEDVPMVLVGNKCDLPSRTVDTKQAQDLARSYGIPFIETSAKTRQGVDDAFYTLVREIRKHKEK
- measurement.protocol: Protein-protein interaction (PPI) HTRF assay KRAS G12D/RAF1
- condition.parameters: KRAS G12D/RAF1, GppNHp-loaded KRAS; 30 minutes pre-incubation
What IC50 was measured for each of the following?

Example entries and their recorded answers appear below.
{"compound": "CN(C)C(=O)c1nn2c(c1Cl)CN(c1nc(OC[C@@]34CCCN3C[C@H](F)C4)nc3c1CN(C)[C@@]1(CCc4ccccc41)C3)CCC2", "study.target": "KRAS G12D/RAF1 (Homo sapiens, UniProt P01116, G12D)", "IC50": "10 to 100 µM"}
{"compound": "CN(C)C(=O)c1cc2n(n1)CCCN(c1nc(OC[C@@]34CCCN3C[C@H](F)C4)nc3c1COC1(CCc4ccc(O)cc41)C3)C2 (stereo partly drawn)", "study.target": "KRAS G12D/RAF1 (Homo sapiens, UniProt P01116, G12D)", "IC50": "> 100 µM"}

Okay, here is my list. What is IC50 for each of these?
1. CN1Cc2c(nc(OC[C@@]34CCCN3C[C@H](F)C4)nc2N2CCCn3nc(-c4nc5c(F)cccc5n4C)cc3C2)C[C@]12CCCc1ccccc12
2. C=C1CN2CCCC2(COc2nc3c(c(N4CCCn5nc(C(=O)N(C)C)c(Cl)c5C4)n2)CO[C@@]2(CCc4c(Cl)cccc42)C3)C1 (mixture of isomers)
3. O=C(c1cc2n(n1)CCCN(c1nc(OC[C@@]34CCCN3C[C@H](F)C4)nc3c1CO[C@@]1(CCc4c(Cl)cccc41)C3)C2)N1CCOCC1
4. Cc1noc(-c2cc3n(n2)CCCN(c2nc(OC[C@@]45CCCN4C[C@H](F)C5)nc4c2CN(C)[C@@]2(CCCc5ccccc52)C4)C3)n1

output:
1. > 100 µM
2. 10 to 100 µM
3. 10 to 100 µM
4. > 100 µM

###

- study.target: GST-tagged KRAS G12D (2-169) (Homo sapiens, UniProt P01116, G12D)
- Construct: GST-tagged KRAS^G12D (2-169, Reaction Biology, MSC-11-539); MSC-11-502 (SOS1cat)
- Sequence (P01116 2-169 isoform P01116-2 G12D): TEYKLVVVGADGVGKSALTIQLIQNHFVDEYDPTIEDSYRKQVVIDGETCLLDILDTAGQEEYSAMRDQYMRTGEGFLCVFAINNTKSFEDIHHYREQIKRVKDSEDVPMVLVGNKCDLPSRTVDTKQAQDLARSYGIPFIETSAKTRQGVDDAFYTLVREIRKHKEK
- measurement.protocol: Nucleotide exchange assay (NEA), HTRF of SOS-mediated GTP-DY-647P1 binding
- condition.parameters: 5 nM GST-KRAS G12D, 20 nM SOScat, 150 nM GTP; compound 1 h at RT
experimental.readout: IC50

{"molecule": "Cc1noc(-c2cc3n(n2)CCCN(c2nc(OC[C@@]45CCCN4C[C@H](F)C5)nc4c2CN(C)[C@@]2(CCCc5ccccc52)C4)C3)n1", "IC50": "10 to 100 nM"}

Batch of 4 molecules: report IC50 for each.
1. N#CN[C@@H]1CCCCN(c2nc(OC[C@@]34CCCN3C[C@H](F)C4)nc3c2CO[C@@]2(CCc4c(Cl)cccc42)C3)C1
2. CONC(=O)c1cc2n(n1)CCCN(c1nc(OC[C@@]34CCCN3C[C@H](F)C4)nc3c1CO[C@@]1(CCc4c(Cl)cccc41)C3)C2
3. CC(C)NC(=O)c1cc2n(n1)CCCN(c1nc(OC[C@@]34CCCN3C[C@H](F)C4)nc3c1CO[C@@]1(CCc4c(Cl)cccc41)C3)C2
4. CN(C)C(=O)c1cc2n(n1)CCCN(c1nc(OC[C@@]34CCCN3C[C@H](F)C4)nc3c1CO[C@]1(CCc4c(Cl)cccc41)C3)C2 [Compound 27B]

output:
1. 1000 to 20000 nM
2. 10 to 100 nM
3. 10 to 100 nM
4. < 10 nM

Could I get IC50 for every one of these entries?
1. CS(=O)(=O)c1cc2n(n1)CCCN(c1nc(OC[C@@]34CCCN3C[C@H](F)C4)nc3c1CO[C@@]1(CCc4c(Cl)cccc41)C3)C2
2. CN(C)C(=O)c1nn2c(c1Cl)CN(c1nc(OC[C@@]34CCCN3C[C@H](F)C4)nc3c1CN(C)[C@@]1(CCc4c(F)cccc41)C3)CCC2
3. CN1Cc2c(nc(OC[C@@]34CCCN3C[C@H](F)C4)nc2N2CCCn3nc(N)c(Cl)c3C2)C[C@]12CCCc1ccccc12

output:
1: 10 to 100 nM; 2: < 10 nM; 3: < 10 nM

Would you mind giving IC50 for every molecule in the list below?
1. O=C(c1nn2c(c1Cl)CN(c1nc(OC[C@@]34CCCN3C[C@H](F)C4)nc3c1CO[C@@]1(CCc4c(Cl)cccc41)C3)CCC2)N1CCOCC1
2. CN1Cc2c(nc(OC[C@@]34CCCN3C[C@H](F)C4)nc2N2CCCn3nc(C(=O)O)c(Cl)c3C2)C[C@]12CCCc1ccccc12
3. CN(C)C(=O)c1nn2c(c1Cl)CN(c1nc(OC[C@@]34CCCN3C[C@H](F)C4)nc3c1CN(C)[C@@]1(CCc4cccc(Cl)c41)C3)CCC2

output:
1. < 10 nM
2. < 10 nM
3. < 10 nM

input: Give the measured IC50 of CN1Cc2c(nc(OC[C@@]34CCCN3C[C@H](F)C4)nc2N2CCC[C@]3(C2)NC(=O)NC3=O)C[C@]12CCc1c(F)ccc(F)c12 .
output: 10 to 100 nM

###

- study.target: wtKRAS/RAF1 (Homo sapiens)
- Construct: KRAS (1-169) proteins were expressed in E. coli at 18° C; His6-MBP (N, cleaved yes)
- Sequence (P01116 1-169 isoform P01116-2): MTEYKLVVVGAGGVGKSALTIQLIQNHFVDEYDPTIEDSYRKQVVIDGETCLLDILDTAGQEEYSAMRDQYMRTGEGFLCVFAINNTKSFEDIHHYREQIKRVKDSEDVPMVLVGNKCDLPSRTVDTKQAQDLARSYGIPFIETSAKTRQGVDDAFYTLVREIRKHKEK
- measurement.protocol: Protein-protein interaction (PPI) HTRF assay w.t.KRAS/RAF1
experimental.readout: IC50

{"molecule": "C[C@@]1(O)CCCN(c2nc(OC[C@@]34CCCN3C[C@H](F)C4)nc3c2COC2(CCc4c(Cl)cccc42)C3)C1 (stereo partly drawn)", "study.target": "wtKRAS/RAF1 (Homo sapiens)", "reading": "> 100 µM"}
{"molecule": "CN(C)C(=O)c1nn2c(c1Cl)CN(c1nc(OC[C@@]34CCCN3C[C@H](F)C4)nc3c1CN(C)[C@@]1(CCc4ccccc41)C3)CCC2", "study.target": "wtKRAS/RAF1 (Homo sapiens)", "reading": "10 to 100 µM"}

Please turn your attention to the following entry.
input: Reported IC50 for Cc1nnc(-c2nn3c(c2Cl)CN(c2nc(OC[C@@]45CCCN4C[C@H](F)C5)nc4c2CN(C)[C@@]2(CCCc5ccccc52)C4)CCC3)n1C : what is it?
output: > 100 µM

###

Could you please report measured IC50 for the items listed next?
- study.target: GST-tagged KRAS G12D (2-169) (Homo sapiens, UniProt P01116, G12D)
- Construct: GST-tagged KRAS^G12D (2-169, Reaction Biology, MSC-11-539); MSC-11-502 (SOS1cat)
- measurement.protocol: Nucleotide exchange assay (NEA), HTRF of SOS-mediated GTP-DY-647P1 binding
- condition.parameters: 5 nM GST-KRAS G12D, 20 nM SOScat, 150 nM GTP; compound 1 h at RT

{"compound": "O=C(c1nn2c(c1Cl)CN(c1nc(OC[C@@]34CCCN3C[C@H](F)C4)nc3c1CO[C@@]1(CCc4c(Cl)cccc41)C3)CCC2)N1CCS(=O)(=O)CC1 [Compound 56]", "IC50": "10 to 100 nM"}
{"compound": "CN1Cc2c(nc(OC[C@@]34CCCN3C[C@H](F)C4)nc2N2CCC[C@]3(C2)NC(=O)NC3=O)C[C@]12CCc1c(Cl)cccc12 [Compound 58]", "IC50": "10 to 100 nM"}
{"compound": "COc1cccc(-c2cc3n(n2)CCCN(c2nc(OC[C@@]45CCCN4C[C@H](F)C5)nc4c2CN(C)[C@@]2(CCCc5ccccc52)C4)C3)n1 [Compound 89]", "IC50": "100 to 1000 nM"}
{"compound": "CN(C)C(=O)c1cc2n(n1)CCCN(c1nc(OC[C@@]34CCCN3C[C@H](F)C4)nc3c1CN(C)[C@@]1(CCCc4ccc(O)cc41)C3)C2 [Compound 39A]", "IC50": "< 10 nM"}
{"compound": "O=C1NC(=O)C2(CCCN(c3nc(OC[C@@]45CCCN4C[C@H](F)C5)nc4c3COC3(CCc5c(Cl)cccc53)C4)C2)N1 (stereo partly shown) [Compound 24]", "IC50": "100 to 1000 nM"}
{"compound": "CN1Cc2c(nc(OC[C@@]34CCCN3C[C@H](F)C4)nc2N2CCCn3nc(-c4nnnn4C)c(Cl)c3C2)C[C@]12CCCc1ccccc12 [Compound 99]", "IC50": "< 10 nM"}
{"compound": "CN(C)C(=O)c1cc2n(n1)CCCN(c1nc(OC[C@@]34CCCN3C[C@H](F)C4)nc3c1CN(C)[C@]1(CCCc4ccc(O)cc41)C3)C2 [Compound 39B]", "IC50": "1000 to 20000 nM"}
{"compound": "OC1CCCN(c2nc(OC[C@@]34CCCN3C[C@H](F)C4)nc3c2COC2(CCCc4c(Cl)cccc42)C3)CC1 (stereo partly shown) [Compound 15]", "IC50": "1000 to 20000 nM"}
{"compound": "CN1Cc2c(nc(OC[C@@]34CCCN3C[C@H](F)C4)nc2N2CCC[C@]3(C2)NC(=O)NC3=O)C[C@]12CCc1ccccc12 [Compound 60]", "IC50": "100 to 1000 nM"}

Proceed to the following item.
input: # lookup: IC50 of Nc1ccc2c(c1)C1(CCC2)Cc2nc(OC[C@@]34CCCN3C[C@H](F)C4)nc(N3CCCC(O)CC3)c2CO1 (stereo partly shown) [Compound 13]
output: 1000 to 20000 nM
